- experimentalSystem: Human NR1/NR2A channel (Homo sapiens, UniProt Q05586+Q12879)
- Sequence (Q12879 23-1464, other chains not shown): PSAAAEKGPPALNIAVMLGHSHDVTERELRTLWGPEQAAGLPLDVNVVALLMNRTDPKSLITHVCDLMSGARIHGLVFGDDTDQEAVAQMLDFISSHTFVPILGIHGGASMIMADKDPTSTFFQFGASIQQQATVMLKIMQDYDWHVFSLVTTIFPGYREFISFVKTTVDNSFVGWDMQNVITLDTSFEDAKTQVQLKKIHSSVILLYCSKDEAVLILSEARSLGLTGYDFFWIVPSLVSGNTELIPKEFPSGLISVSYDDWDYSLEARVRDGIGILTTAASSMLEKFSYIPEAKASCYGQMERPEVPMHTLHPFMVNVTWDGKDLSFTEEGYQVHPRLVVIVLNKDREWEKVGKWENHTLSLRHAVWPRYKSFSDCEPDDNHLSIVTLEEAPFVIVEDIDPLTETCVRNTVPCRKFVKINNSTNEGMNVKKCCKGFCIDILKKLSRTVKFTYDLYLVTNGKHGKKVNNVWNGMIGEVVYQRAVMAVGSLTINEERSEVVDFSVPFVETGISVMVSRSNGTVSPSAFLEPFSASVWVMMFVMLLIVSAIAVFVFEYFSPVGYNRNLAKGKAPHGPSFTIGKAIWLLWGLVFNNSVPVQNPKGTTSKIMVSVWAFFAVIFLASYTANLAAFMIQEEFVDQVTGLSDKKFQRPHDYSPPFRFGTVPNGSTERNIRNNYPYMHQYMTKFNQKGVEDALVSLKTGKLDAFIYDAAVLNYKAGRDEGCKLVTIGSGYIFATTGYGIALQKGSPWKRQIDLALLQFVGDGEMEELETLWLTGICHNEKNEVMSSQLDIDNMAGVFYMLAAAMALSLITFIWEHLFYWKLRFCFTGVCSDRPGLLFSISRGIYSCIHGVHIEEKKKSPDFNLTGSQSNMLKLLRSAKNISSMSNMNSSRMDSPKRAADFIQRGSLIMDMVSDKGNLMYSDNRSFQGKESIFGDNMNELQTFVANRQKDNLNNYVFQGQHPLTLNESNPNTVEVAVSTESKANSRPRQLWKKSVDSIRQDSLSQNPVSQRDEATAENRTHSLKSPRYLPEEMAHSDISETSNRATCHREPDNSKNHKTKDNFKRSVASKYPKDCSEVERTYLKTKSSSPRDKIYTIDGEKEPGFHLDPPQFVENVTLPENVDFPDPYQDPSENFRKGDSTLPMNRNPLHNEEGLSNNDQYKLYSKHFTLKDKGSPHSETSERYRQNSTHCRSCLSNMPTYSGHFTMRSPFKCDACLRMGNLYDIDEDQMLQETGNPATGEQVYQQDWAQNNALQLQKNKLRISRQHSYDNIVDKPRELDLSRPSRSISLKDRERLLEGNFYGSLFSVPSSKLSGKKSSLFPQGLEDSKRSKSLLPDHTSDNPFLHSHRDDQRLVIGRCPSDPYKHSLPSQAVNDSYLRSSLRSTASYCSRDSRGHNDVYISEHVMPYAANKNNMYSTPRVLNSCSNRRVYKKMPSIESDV
- testProtocol: Automated patch clamp (QPatch16) block of NR1/NR2A channel currents in CHO-1H8 cells
- Assay type: cell-based
- Protocol: Chinese Hamster Ovary (CHO-KI) cells were transfected with Effectene^R reagent following the manufacturer's instructions. Cells were triply transfected with plasmids pTet-Off, pTRE2-pur hNR1, and pGEN IRES Hyg-hNR2A. Transfection was done in medium containing Ham's F12, 10% FBS, 2 mM L-Glutamine, 200 μM ketamine and 2 μg/ml doxycycline. 24 hours post transfection, cells were split 1:10 into medium in which 200 μM ketamine was replaced with 20 μM MK-801. […]
Where a name gives a salt, the structure may show the parent alone.
measuredAttribute: pIC50
Scale for pIC50: -log10 of concentration given in mol/L; no unit attached.

> print(dat)
                                   molecule  measuredattribute  valueobserved
1  N[C@@H](Cc1ccccn1)c1ccccc1 (single isomer, unassigned) [Example 13, dihydrochloride, reference compound]              pIC50           5.22

Now let's try a different one.
Noted for N[C@H](Cc1ccccn1)c1ccccc1 (single isomer, unassigned) [Example 14, dihydrochloride, reference compound] : its pIC50 reads 5.00

Where do the numbers come from? From patent US20120277272A1.
